All values here come from patent US20240182536A1.

Catalogue of Activity, +100 nM BP, DF-1000002 readings, one per entry.
experimental.target: T1, IL-18 binding protein (IL-18BP) (UniProt O95998 31-194)
T1 sequence (looked up): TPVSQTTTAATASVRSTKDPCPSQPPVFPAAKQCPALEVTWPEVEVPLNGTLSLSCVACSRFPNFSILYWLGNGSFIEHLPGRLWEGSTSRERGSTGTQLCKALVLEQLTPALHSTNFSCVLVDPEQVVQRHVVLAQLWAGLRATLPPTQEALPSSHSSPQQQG
test.name: cell-based or functional assay
The answer should be written as a number, with no unit following it.

The cases that follow already have their Activity, +100 nM BP, DF-1000002 on record.
binder: IL-18 variant G3Y, E6S, K53S, D54W, S55L, N91I (ligand) YFYKLSSKLSVIRNLNDQVLFIDQGNRPLFEDMTDSDMRDNAPRTIFIISMYSWLQPRGMAVTISVKSEKISTLSSENKIISFKEMNPPDIIKDTKSDIIFFQRSVPGHDNKMQFESSSYEGYFLASEKERDLFKLILKKEDELGDRSIMFTVQNED
Activity, +100 nM BP, DF-1000002: 0.78
--
binder: IL-18 variant G3V, E6Q, T34P, D54M, S55F, N91R, R104H (ligand) YFVKLQSKLSVIRNLNDQVLFIDQGNRPLFEDMPDSDMRDNAPRTIFIISMYKMFQPRGMAVTISVKSEKISTLSSENKIISFKEMNPPDRIKDTKSDIIFFQHSVPGHDNKMQFESSSYEGYFLASEKERDLFKLILKKEDELGDRSIMFTVQNED
Activity, +100 nM BP, DF-1000002: 0.14
--
binder: IL-18 variant G3P, E6R, D54W, S55Q, T63S, N91T, R104H (ligand) YFPKLRSKLSVIRNLNDQVLFIDQGNRPLFEDMTDSDMRDNAPRTIFIISMYKWQQPRGMAVSISVKSEKISTLSSENKIISFKEMNPPDTIKDTKSDIIFFQHSVPGHDNKMQFESSSYEGYFLASEKERDLFKLILKKEDELGDRSIMFTVQNED
Activity, +100 nM BP, DF-1000002: 0.89
--
binder: IL-18 variant G3Q, E6Q, K53T, D54W, S55F, N91Y (ligand) YFQKLQSKLSVIRNLNDQVLFIDQGNRPLFEDMTDSDMRDNAPRTIFIISMYTWFQPRGMAVTISVKSEKISTLSSENKIISFKEMNPPDYIKDTKSDIIFFQRSVPGHDNKMQFESSSYEGYFLASEKERDLFKLILKKEDELGDRSIMFTVQNED
Activity, +100 nM BP, DF-1000002: 1.14
--
binder: IL-18 variant G3L, E6Y, D54T, T63S, N91Y, R104Q (ligand) YFLKLYSKLSVIRNLNDQVLFIDQGNRPLFEDMTDSDMRDNAPRTIFIISMYKTSQPRGMAVSISVKSEKISTLSSENKIISFKEMNPPDYIKDTKSDIIFFQQSVPGHDNKMQFESSSYEGYFLASEKERDLFKLILKKEDELGDRSIMFTVQNED
Activity, +100 nM BP, DF-1000002: 2.04
--
binder: IL-18 variant G3R, E6D, D54A, S55Q, T63S, N91K, R104P (ligand) YFRKLDSKLSVIRNLNDQVLFIDQGNRPLFEDMTDSDMRDNAPRTIFIISMYKAQQPRGMAVSISVKSEKISTLSSENKIISFKEMNPPDKIKDTKSDIIFFQPSVPGHDNKMQFESSSYEGYFLASEKERDLFKLILKKEDELGDRSIMFTVQNED
Activity, +100 nM BP, DF-1000002: 0.07

[ask] Please give the documented Activity, +100 nM BP, DF-1000002 of IL-18 variant G3Q, E6H, D54N, S55I, T63S, N91V (ligand) YFQKLHSKLSVIRNLNDQVLFIDQGNRPLFEDMTDSDMRDNAPRTIFIISMYKNIQPRGMAVSISVKSEKISTLSSENKIISFKEMNPPDVIKDTKSDIIFFQRSVPGHDNKMQFESSSYEGYFLASEKERDLFKLILKKEDELGDRSIMFTVQNED
[reply] 1.8

[ask] Please give the documented Activity, +100 nM BP, DF-1000002 of IL-18 variant G3P, E6K, D54Y, S55P, Q56H, T63S, N91S, R104Q (ligand) YFPKLKSKLSVIRNLNDQVLFIDQGNRPLFEDMTDSDMRDNAPRTIFIISMYKYPHPRGMAVSISVKSEKISTLSSENKIISFKEMNPPDSIKDTKSDIIFFQQSVPGHDNKMQFESSSYEGYFLASEKERDLFKLILKKEDELGDRSIMFTVQNED
[reply] 1.69

[ask] Please give the documented Activity, +100 nM BP, DF-1000002 of IL-18 variant G3S, E6Q, K53S, D54Y, S55H, N91L, R104Q (ligand) YFSKLQSKLSVIRNLNDQVLFIDQGNRPLFEDMTDSDMRDNAPRTIFIISMYSYHQPRGMAVTISVKSEKISTLSSENKIISFKEMNPPDLIKDTKSDIIFFQQSVPGHDNKMQFESSSYEGYFLASEKERDLFKLILKKEDELGDRSIMFTVQNED
[reply] 0.51
